These entries and their values trace back to PubChem BioAssay (NCATS).

method.description: qHTS for Inhibitors of the Functional Ribonucleoprotein Complex (vRNP) of Lassa (LASV) Arenavirus: Viability assay - alamar blue signal for LASV Primary Screen (AID 1347083); note: nearly all actives have a fitted effect of over 80% in size
stated.conditions: cell viability, alamar blue fluorescence (LASV minigenome counter-screen); series mostly up to 57.5 µM
Records with an inconclusive call do not appear. Activity calls are given as the source filed them. Calls come from the whole dose curve; tested in HEK293 reporter line.
Output constraint: value belongs to YES (active), NO (inactive)

Use these answered entries as a reference point.
IN: Hey, what did the test say about `CC1=CC(=O)C2=C(C)C[C@@H]3OC(=O)[C@@H](C)[C@H]3C=C12` ?
OUT: NO

IN: Please give the result for `COc1cc(OC)c(C=CS(=O)(=O)Cc2ccc(OC)c(NCC(=O)O)c2)c(OC)c1` too.
OUT: YES

IN: Entry NCC(O)C1CCCCCCC1 (stereo unspecified) please
OUT: NO

IN: Same for `NCCO/C=C/[C@H](N)C(=O)O`
OUT: NO

IN: And for CCCCC1CCC(=O)O1 (stereo unspecified) ?
OUT: NO

Turning now to a further record.
IN: Could you kindly confirm the outcome this assay logged for `CC[C@@H]1Cc2cc(O)ccc2C2=C1c1ccc(O)cc1C[C@H]2CC` ?
OUT: NO

###

method.description: qHTS for Inhibitors of the Functional Ribonucleoprotein Complex (vRNP) of Lymphocytic Choriomeningitis Arenaviruses (LCMV): Viability assay - alamar blue signal for LCMV Primary Screen (AID 1347085); note: nearly all actives have a fitted effect of over 80% in size
stated.conditions: alamar blue viability counter-screen, LCMV vRNP screen cells; series mostly up to 57.5 µM
Inconclusive results are not listed. Calls of active or inactive are those of the source. Calls come from the whole dose curve; tested in HEK293 reporter line.
result.type: outcome

Some entries whose results are on file:
IN: Data request, read-out outcome, for OCCC(O)CO (stereo unspecified)
OUT: inactive

IN: Next compound up: `COC(=O)c1ccc(C)cc1`
OUT: inactive

IN: Please answer likewise for `NC(=O)c1ncn([C@@H]2O[C@H](CO)[C@@H](O)[C@@H]2O)n1`
OUT: inactive

IN: Same for CC1CC2CCCC(O)=C2C(=O)O1 (stereo unspecified)
OUT: inactive

IN: What about `COc1cc2c(c(OC)c1OC)-c1ccc(OC)c(=O)cc1[C@@H](NC=O)CC2` ?
OUT: inactive

IN: Same for CC(C)(O)CC[C@H](OC(=O)c1ccccc1)[C@](C)(O)[C@H]1CC[C@@]2(O)C3=CC(=O)[C@@H]4C[C@@H](O)[C@H](O)C[C@]4(C)C3CC[C@]12C (stereo partly specified)
OUT: inactive

IN: Please do the same for C[C@]12CC[C@@H]3c4ccc(O)cc4C[C@@H](CCCCCCCCCS(=O)CCCC(F)(F)C(F)(F)F)[C@H]3[C@H]1CC[C@H]2O (stereo partly specified) as well.
OUT: inactive

IN: // repeat for `COc1c2c(c(OC)c3c1c(=O)c1ccccc1n3C)OCO2` and report
OUT: inactive

***
IN: I have this compound here, `C=CC(C)(C)O[C@@H]1O[C@H](CO)[C@@H](O)[C@H](O)[C@H]1O` , and I need its recorded outcome.
OUT: inactive

IN: Request: CC(C)=CCCC1(C)C=Cc2c(c(C)cc3c2[nH]c2cc(O)ccc23)O1 (stereo unspecified)
OUT: inactive

IN: Also check `N[C@@H](CCCCNC(=O)CCCC[C@@H]1SC[C@H]2NC(=O)N[C@H]12)C(=O)O`
OUT: inactive

IN: Param item: `COc1cccc2c1[C@@H]1CN(CCCCn3c(=O)[nH]c4c(sc5ncc(-c6ccccc6)nc54)c3=O)C[C@@H]1CO2`
OUT: inactive

###

method.description: qHTS for Inhibitors of the Functional Ribonucleoprotein Complex (vRNP) of Lassa (LASV) Arenavirus: Viability assay - alamar blue signal for LASV Primary Screen (AID 1347083); note: nearly all actives have a fitted effect of over 80% in size
stated.conditions: cell viability, alamar blue fluorescence (LASV minigenome counter-screen); series mostly up to 57.5 µM
Records with an inconclusive call do not appear. The source made the active and inactive calls. Calls come from the whole dose curve; tested in HEK293 reporter line.
result.type: outcome

IN: Fill blank: measured outcome of the compound `CCCO` is ____.
OUT: inactive

IN: Further, for `O=C(CO)N1CCC(c2[nH]nc(-c3ccc(Cl)cc3)c2-c2ccncn2)CC1` ?
OUT: inactive

IN: Entry to check: `C=C(C)[C@@H]1CC[C@]2(C)CC[C@]3(C)[C@H](CC[C@@H]4[C@@]5(C)CC[C@H](O)C(C)(C)[C@H]5CC[C@]43C)[C@@H]12`
OUT: inactive

IN: Lookup `O=c1ncn2nc(Sc3ccc(F)cc3F)ccc2c1-c1c(Cl)cccc1Cl`
OUT: inactive

IN: Then what about the compound CC1CCC[C@H](O)CCCCCc2cc(O)cc(O)c2C(=O)O1 (some centres undefined) ?
OUT: inactive

New cases:
IN: Return reported outcome; argument: `CC(C)(C)OC(=O)CN(Cc1ccc(Cl)cc1)Cc1ccc([N+](=O)[O-])s1`
OUT: inactive

IN: Also need `c1cnc2c(-c3nccc4c3[nH]c3ccccc34)cccc2c1` , thanks.
OUT: inactive

IN: Same question for `CC1(C)O[C@@H]2C[C@@H]3[C@H]4C[C@@H](F)C5=CC(=O)C=C[C@]5(C)[C@@]4(F)[C@@H](O)C[C@]3(C)[C@]2(C(=O)CO)O1` please.
OUT: inactive

IN: Please answer likewise for OCC1O[C@H]([S-])[C@H](O)[C@@H](O)[C@@H]1O.[Au+] (some centres undefined)
OUT: inactive

###

Tested on: HaCat
method.description: Cytotoxic Profiling of Annotated Libraries Using Quantitative High-Throughput Screening (AID 1296008); note: nearly all actives have a fitted effect of over 60% in size
stated.conditions: Five cell lines viability, CellTiter-Glo ATP luminescence, 48-72 h
Results filed as inconclusive are left out. Calls of active or inactive are those of the source. Calls come from the whole dose curve; as a rule, active = well fitted inhibition curve with a large enough effect; inconclusive = small, poorly fitted or top-dose-only effect; inactive = flat fitted curve, though single readings scatter.
Pick one: active, inactive

Please review the following examples before continuing.
IN: Tell me the recorded outcome of this test for C[C@@H]1C[C@@H](O)[C@]2(O)O[C@@H]3C[C@@]4(C=O)C(CC[C@@H]5C4CC[C@]4(C)[C@@H](C6=CC(=O)OC6)CC[C@]54O)C[C@H]3O[C@@H]2O1 (stereo partly drawn) .
OUT: active

IN: Also need `CC(=O)OC[C@]12[C@H](OC(C)=O)C(=O)[C@@H]3[C@@H](O)[C@@]14O[C@@]3(C)COC(=O)c1cccnc1[C@@H](C)[C@H](C)C(=O)O[C@@H]([C@H](OC(C)=O)[C@@H]2OC(C)=O)[C@]4(C)O` , thanks.
OUT: inactive

// next entry
IN: So what was the verdict on `CC(=O)OC[C@]12C[C@H](OC(=O)CC(C)C)C(C)=C[C@H]1O[C@@H]1[C@H](O)C[C@@]2(C)[C@]12CO2` in this test?
OUT: active

###

method.description: qHTS for Inhibitors of the Functional Ribonucleoprotein Complex (vRNP) of Lymphocytic Choriomeningitis Arenaviruses (LCMV): Viability assay - alamar blue signal for LCMV Primary Screen (AID 1347085); note: nearly all actives have a fitted effect of over 80% in size; note: potency is the fitted concentration of half-maximal effect
stated.conditions: alamar blue viability counter-screen, LCMV vRNP screen cells; series mostly up to 57.5 µM
Inconclusive results are not listed. Activity calls are given as the source filed them. Calls come from the whole dose curve; tested in HEK293 reporter line.
result.type: Potency

IN: I'd like to know its Potency. The compound in question is `O=c1[nH]c(=O)n([C@H]2C[C@@H](O)[C@@H](CO)O2)cc1F`
OUT: 7.69 µM (active)

IN: Now give it for `O=C[C@H](O)[C@@H](O)[C@H](O[C@H]1O[C@H](CO)[C@@H](O[C@H]2O[C@H](CO)[C@@H](O)[C@H](O)[C@H]2O)[C@H](O)[C@H]1O)[C@H](O)CO` too.
OUT: inactive

IN: Next record, please: COc1c(O)ccc2c1-c1c3c(cc4c1C(C2)N(C)CC4)OCO3 (stereo unspecified)
OUT: inactive

IN: Subsequent entry: `CN[C@H](CC(C)C)C(=O)N[C@H]1C(=O)N[C@@H](CC(N)=O)C(=O)N[C@H]2C(=O)N[C@H]3C(=O)N[C@H](C(=O)N[C@H](C(=O)O)c4cc(O)cc(O)c4-c4cc3ccc4O)[C@H](O)c3ccc(c(Cl)c3)Oc3cc2cc(c3O[C@@H]2O[C@H](CO)[C@@H](O)[C@H](O)[C@H]2O[C@H]2C[C@](C)(N)[C@H](O)[C@H](C)O2)Oc2ccc(cc2Cl)[C@H]1O`
OUT: inactive

IN: Queued: CO[C@@H]1C(N(C)C(=O)c2ccccc2)C[C@H]2O[C@]1(C)n1c3ccccc3c3c4c(c5c6ccccc6n2c5c31)C(=O)NC4=O (stereo partly specified)
OUT: inactive

In the following, a different compound is considered.
IN: What does the record list as Potency for `CN(C)CCCO[C@@H]1[C@H]2OC(C)(C)O[C@H]2O[C@@H]1[C@H](O)CO` ?
OUT: inactive

###

method.description: Primary fluorescence-based thiol-reactive (MSTI) qHTS assay for identification of artifact compounds. (AID 1845221);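 note: thiol-reactive compounds lower the probe fluorescence signal; nearly all actives have a fitted effect of over 65% in size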
stated.conditions: MSTI thiol-reactivity probe, 1 h; series mostly up to 53.8 µM
Inconclusive results are not listed. Activity calls are given as the source filed them. Calls come from the whole dose curve; as a rule, active = well fitted inhibition curve with a large enough effect; inconclusive = small, poorly fitted or top-dose-only effect; inactive = no such curve, though single readings can be large or run the other way.
result.type: outcome

Completed entries (count: 4):
IN: Please report the recorded outcome for `O=C(NCCN1CCC2(CC1)C(=O)NCN2c1cccc(F)c1)c1ccc2ccccc2c1` .
OUT: inactive

IN: Could you do the same for `CC(C)[C@H](NC(=O)c1nn(Cc2ccc(F)cc2)c2ccccc12)C(N)=O` , please?
OUT: inactive

IN: How about this compound: `O=C1N[C@@H](Cc2ccccc2)CN2CCCC[C@@H]12`
OUT: inactive

IN: Same thing, different compound: Cc1ccc(-n2nccn2)c(C(=O)N2CCN(c3nc4cc(Cl)ccc4o3)CCC2C)c1 (stereo not given)
OUT: inactive

Others:
IN: Given `COc1ccc2c3c4n(c2c1)[C@@H](C=C(C)C)OOC(C)(C)C[C@@H]4N1C(=O)[C@@H]2CCCN2C(=O)[C@]1(O)[C@H]3OCC=C(C)C` , state its recorded outcome.
OUT: inactive
